The reported measurements were obtained from patent US20260042834A1.

Biological target: T1, corticotropin-releasing hormone (CRH) peptide (human and mouse (same sequence), not fully specified)
T1 peptide: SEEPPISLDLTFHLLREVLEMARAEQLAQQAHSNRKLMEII
Test: cell-based or functional assay
Recorded metric: mCrhr1 Luciferase Reporter Assay IC50 (nM)
Dear colleague, please return just the value in nM, with no unit written.

PR302038 (antibody, human IgG1, kappa, V domains shown, humanized variant of PR301777) VH: EMQLVESGGGLVQPGGSLRLSCAASGFTFSNYWMNWVRQAPGKGLEWVAEIRLKSNNYATHYAESVKGRFTISRDDSKSSVYLQMNSLKTEDTAVYYCTVGTLVYWGQGTLVTVSS VL: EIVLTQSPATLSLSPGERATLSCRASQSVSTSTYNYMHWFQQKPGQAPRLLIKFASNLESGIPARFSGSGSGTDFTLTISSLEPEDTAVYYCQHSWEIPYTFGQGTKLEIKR	10.1

Kindly review the next binder as well.
Task item: Recorded mCrhr1 Luciferase Reporter Assay IC50 of PR302064 (antibody, human IgG1, kappa, V domains shown, humanized variant of PR301777) VH: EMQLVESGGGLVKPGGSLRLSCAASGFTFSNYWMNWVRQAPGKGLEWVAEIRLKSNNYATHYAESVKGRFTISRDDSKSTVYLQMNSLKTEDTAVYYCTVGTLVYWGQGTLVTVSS VL: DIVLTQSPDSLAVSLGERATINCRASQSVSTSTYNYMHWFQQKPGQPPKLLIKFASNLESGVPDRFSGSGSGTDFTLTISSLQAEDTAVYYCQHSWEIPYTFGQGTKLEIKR , please.
Reply: 2.39
